System: Escherichia coli
Assay: Minimum inhibitory concentration required for primary screening against in-house strain of Escherichia coli tested in vitro
Assay type: functional
Quick reference: MIC of the listed items.

Past entries and their recorded results:
INSERT INTO measurements (item_smiles, target_or_test_system, recorded_measurement) VALUES
  ('CCCC[C@H](CN(O)C=O)C(=O)N[C@H](C(=O)c1ccc(C#N)cc1)C(C)(C)C', 'Escherichia coli', '6.25 µM'),
  ('CCCC[C@H](CN(O)C=O)C(=O)N[C@H](C(=O)c1ccc(NC(C)=O)cc1)C(C)(C)C', 'Escherichia coli', '12 µM'),
  ('CC(C)(C)[C@H](NC(=O)[C@H](CC1CCCC1)CN(O)C=O)C(=O)c1ccc(O)cc1', 'Escherichia coli', '6.25 µM'),
  ('CCCC[C@H](CN(O)C=O)C(=O)N[C@H](C(=O)c1ccccc1)C(C)(C)C', 'Escherichia coli', '12.5 µM'),
  ('CCCC[C@H](CN(O)C=O)C(=O)N[C@H](C(C)=O)C(C)(C)C', 'Escherichia coli', '25 µM'),
  ('CC(C)(C)[C@H](NC(=O)[C@H](CC1CCCC1)CN(O)C=O)C(=O)c1ccc(S(C)(=O)=O)cc1', 'Escherichia coli', '25 µM');

Attention now shifts to the item below.
Q: Param item = CC(C)(C)[C@H](NC(=O)[C@H](CC1CCCC1)CN(O)C=O)C(=O)c1ccc(N2CCOCC2)cc1 ; retrieve measured MIC.
Result: 12.5 µM
